# Test Protocol: Cytotoxicity against African green monkey Vero C1008 cells after 72 hrs by MTT assay
# Assay type: cell-based
# Applied Conditions: chlorocebus sabaeus
Entry class follows CC50 at 72 h: one (below 700 µM), two (700 µM to below 900 µM), three (900 µM or more)

**Q:** // bin(item) where item = COc1ccc(CN(Cc2cc3ccccc3nc2OC)CC(O)CN2CCOCC2)cc1 (configuration not stated)
**A:** three

**Q:** Tag the class for CCN(CC)CC(O)CN(Cc1ccc(C)cc1)Cc1cc2ccccc2nc1OC (configuration not stated)
**A:** three

**Q:** Textbook exercise: identify the category of the molecule given here, COc1nc2ccccc2cc1CN(Cc1ccc(C)cc1)CC(O)CN1CCCC1 (configuration not stated) , according to its measured value.
**A:** three

**Q:** Could you tell me which band CCN(CC)CC(O)CN(Cc1ccc(Cl)cc1)Cc1cc2ccccc2nc1OC (configuration not stated) belongs to?
**A:** two

**Q:** Form field 'band' for COc1nc2ccccc2cc1CN(Cc1ccccc1)CC(O)CN1CCOCC1 (configuration not stated)
**A:** one

**Q:** State the band of CCN(CC)CC(O)CN(Cc1ccc(OC)cc1)Cc1cc2ccccc2nc1OC (configuration not stated)
**A:** two

**Q:** // bin(item) where item = COc1nc2ccccc2cc1CN(Cc1ccccc1)CC(O)CN1CCCC1 (configuration not stated)
**A:** two

**Q:** Categorize the following entry: CCN(CC)CC(O)CN(Cc1ccccc1)Cc1cc2ccccc2nc1OC (configuration not stated)
**A:** one

**Q:** Determine which band this molecule sits in: COc1ccc(CN(Cc2cc3ccccc3nc2OC)CC(O)CN2CCCC2)cc1 (configuration not stated)
**A:** one

**Q:** Bin this entry: COc1nc2ccccc2cc1CN(Cc1ccc(Cl)cc1)CC(O)CN1CCOCC1 (configuration not stated)
**A:** three
